Target or system human nociceptin receptor (Homo sapiens): recorded pKi listed per item.
pKi: −log10 of the molar value. Where a name gives a salt, the structure may show the parent alone.
QUANTITY_NAME: pKi

Reference set, count: 3
COMPOUND | ASSAY_SYSTEM | QUANTITY_NAME | ASSAY_VALUE
Cc1ccc2nc(NC(=O)c3cc4ccccc4s3)nc(N[C@H]3CCCC[C@H]3NC(=N)N)c2c1.Cl.Cl [Example 1, dihydrochloride] | human nociceptin receptor (Homo sapiens) | pKi | 9.82
COc1ccc(C(=O)Nc2nc(N[C@H]3CCCC[C@H]3NC(=N)N)c3cc(C)ccc3n2)c(OC)c1.Cl.Cl [Example 6, dihydrochloride] | human nociceptin receptor (Homo sapiens) | pKi | 9.17
COc1ccc2cc(C(=O)Nc3nc(N[C@H]4CCCC[C@H]4NC(=N)N)c4cc(C)ccc4n3)ccc2c1 [Example 7, dihydrochloride] | human nociceptin receptor (Homo sapiens) | pKi | 9.19

(A) COc1ccc(C(=O)Nc2nc(N[C@H]3CCCC[C@H]3NC(=N)N)c3cc(C)ccc3n2)cc1.Cl.Cl [Example 12, dihydrochloride]
(B) Cc1ccc2nc(NC(=O)c3cc4ccccc4o3)nc(N[C@H]3CCCC[C@H]3NC(=N)N)c2c1.Cl.Cl [Example 3, dihydrochloride]
Q: Identify the item whose pKi is the smaller number: A or B Bench note: the answer is the label of the chosen record.
Result: A
(A: 9.24, B: 9.85)

###

- ASSAY_SYSTEM: rat μ opioid receptor (Rattus norvegicus, UniProt P33535)
- Sequence (P33535 whole entry): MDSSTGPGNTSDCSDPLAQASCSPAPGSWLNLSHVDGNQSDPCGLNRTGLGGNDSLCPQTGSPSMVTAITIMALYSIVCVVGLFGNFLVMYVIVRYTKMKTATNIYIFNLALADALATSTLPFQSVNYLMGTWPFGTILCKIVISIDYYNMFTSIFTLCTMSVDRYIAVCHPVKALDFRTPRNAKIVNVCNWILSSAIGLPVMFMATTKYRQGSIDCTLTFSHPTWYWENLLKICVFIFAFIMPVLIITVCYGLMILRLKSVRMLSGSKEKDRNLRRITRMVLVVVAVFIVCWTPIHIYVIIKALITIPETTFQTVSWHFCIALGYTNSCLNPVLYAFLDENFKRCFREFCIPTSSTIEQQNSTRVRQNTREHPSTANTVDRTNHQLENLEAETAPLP
pKi: −log10 of the molar value.
QUANTITY_NAME: pKi

MOLECULE | ASSAY_SYSTEM | ASSAY_VALUE
Cc1ccc2nc(NC(=O)c3cc4ccccc4o3)nc(N[C@H]3CCCC[C@H]3NC(=N)N)c2c1.Cl.Cl [Example 3, dihydrochloride] | rat μ opioid receptor (Rattus norvegicus, UniProt P33535) | 6.59

(a) COc1ccc(C(=O)Nc2nc(N[C@H]3CCCC[C@H]3NC(=N)N)c3cc(C)ccc3n2)cc1.Cl.Cl [Example 12, dihydrochloride]
(b) Cc1ccc2nc(NC(=O)c3cc4ccccc4s3)nc(N[C@H]3CCCC[C@H]3NC(=N)N)c2c1.Cl.Cl [Example 1, dihydrochloride]
Q: For the two items a and b , which reports the higher pKi value? Bench note: the answer is the label of the chosen record.
Result: b

Origin of measurements: patent US7718663B2
